Target protein (sequence): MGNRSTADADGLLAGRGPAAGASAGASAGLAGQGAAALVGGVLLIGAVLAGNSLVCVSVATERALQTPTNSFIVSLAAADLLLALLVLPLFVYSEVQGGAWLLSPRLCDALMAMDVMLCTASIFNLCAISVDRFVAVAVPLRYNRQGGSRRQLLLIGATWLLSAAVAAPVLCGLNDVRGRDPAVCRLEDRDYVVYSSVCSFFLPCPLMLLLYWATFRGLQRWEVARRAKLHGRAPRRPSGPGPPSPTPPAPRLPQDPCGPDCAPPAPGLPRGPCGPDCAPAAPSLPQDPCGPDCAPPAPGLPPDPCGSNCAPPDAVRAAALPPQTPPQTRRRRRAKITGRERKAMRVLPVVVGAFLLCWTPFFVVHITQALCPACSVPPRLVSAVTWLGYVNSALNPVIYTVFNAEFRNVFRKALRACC
quantity.name: pKi
API: returns pKi as number; meaning -log10 of concentration in mol/L.

q: # input compound: Cc1c(-c2ccccc2)nnn1C1CCN(Cc2ccccc2)CC1 ; wanted: its pKi
a: 7.77
